# ED50 annotations
Tested on: clonic and tonic convulsions induced by pentylenetetrazole
Assay: Procedure A: anti-pentylenetetrazole activity
Assay type: in vivo
Settings: Mus musculus, po, 1 h; mice, p.o., challenge one hour later with pentylenetetrazole 125 mg/kg i.p.; read-out: ED50 (against convulsions), Procedure A

Study these solved cases before continuing.
CCN1CCC(N2C(=O)c3ccccc3C2=O)C1 (centres unmarked) [1-ethyl-3-phthalimido-pyrrolidine, 1-ethyl-3-phthalimidopyrrolidine, reference compound] | > 400 mg/kg
Nc1ccc2c(c1)C(=O)N(C1CCN(Cc3ccccc3)CC1)C2=O | 6 to 15 mg/kg
CCN1CCCC(N2C(=O)c3ccc([N+](=O)[O-])cc3C2=O)C1 (centres unmarked) | 6 to 15 mg/kg
CCN1CCCC(N2C(=O)c3ccccc3C2=O)C1 (centres unmarked) | 51 to 100 mg/kg
O=C1c2ccc([N+](=O)[O-])cc2C(=O)N1C1CCN(Cc2ccccc2)CC1 | 6 to 15 mg/kg
CCCCN1CCC(N2C(=O)c3ccc([N+](=O)[O-])cc3C2=O)CC1 | 6 to 15 mg/kg

Requested read-out: ED50. Entry: CCN1CCCC(N2C(=O)c3ccc(N)cc3C2=O)C1 (centres unmarked)
6 to 15 mg/kg

Requested read-out: ED50. Entry: CCCCN1CCC(N2C(=O)c3ccc(N)cc3C2=O)CC1
6 to 15 mg/kg
